Target: CypG (Homo sapiens, UniProt Q13427)
Construct: PPIG (UniProtKB Entry Q13427: residues 1–179); His6 with thrombin site (pET28a LIC leader) (N); host or cells: E. coli BL21(DE3)
Sequence (Q13427 1-179): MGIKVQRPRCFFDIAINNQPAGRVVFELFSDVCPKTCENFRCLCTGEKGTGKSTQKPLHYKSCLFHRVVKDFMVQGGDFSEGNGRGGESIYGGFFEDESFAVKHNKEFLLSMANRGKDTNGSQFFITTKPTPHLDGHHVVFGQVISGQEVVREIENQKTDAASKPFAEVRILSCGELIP
Test: Chymotrypsin coupled prolyl-isomerase assay
Type: biochemical
Conditions: wild-type CypG; read-out: Wild-Type Cyclophilin Prolyl Isomerase Inhibition IC50 Values, CypG
Kindly state pIC50 for each of the entries shown.
Please keep in mind that pIC50 is minus log10 of the molar concentration; only the number is needed.

Exercise: # pIC50 lookup, item NCCOCCNC(=O)[C@@H]1CCNC(=O)/C=C/C(=O)N2CCC[C@](Cc3ccccc3)(C2)C(=O)N[C@@H](Cc2ccc(-c3ccccc3)cc2)C(=O)NCc2ccccc2CC(=O)N1 [Compound B2]
Solution: 4.43

Exercise: Try this compound too: NCCOCCNC(=O)[C@@H]1CCNC(=O)/C=C/C(=O)N2CCC[C@](Cc3ccccc3)(C2)C(=O)N[C@@H](Cc2ccc(-c3ccc(CC(=O)O)cc3)cc2)C(=O)NCc2ccccc2CC(=O)N1 [Compound B22]
Solution: 5.00

Exercise: Try this compound too: NCCOCCNC(=O)C1CCNC(=O)C=CC(=O)N2CCCC(C2)C(=O)NC(Cc2ccco2)C(=O)NCc2ccccc2CC(=O)N1 (centres unmarked) [JOMBt]
Solution: 4.80

Exercise: Try this compound too: NCCOCCNC(=O)[C@@H]1CCNC(=O)/C=C/C(=O)N2CCC[C@](Cc3ccccc3)(C2)C(=O)N[C@@H](Cc2ccc(-c3ccc(/C=C/C(=O)O)cc3)cc2)C(=O)NCc2ccccc2CC(=O)N1 [Compound B24]
Solution: 4.96

---

Biological target: CypB (Homo sapiens)
Construct: PPIB (UniProtKB Entry P23284: residues 34–216); His6 with TEV site (2BT vector leader) (N); made in house; host or cells: E. coli BL21(DE3)
Sequence (P23284 34-216): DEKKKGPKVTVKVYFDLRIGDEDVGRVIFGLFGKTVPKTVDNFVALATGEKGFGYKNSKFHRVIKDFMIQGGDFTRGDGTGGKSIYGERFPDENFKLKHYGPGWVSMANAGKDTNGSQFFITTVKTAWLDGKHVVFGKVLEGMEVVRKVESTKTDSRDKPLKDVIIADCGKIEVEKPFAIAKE
Experiment: biochemical
Settings: wild-type CypB; read-out: Wild-Type Cyclophilin Prolyl Isomerase Inhibition IC50 Values, CypB
measurement_name: IC50 (nM)
Provide the reading as a plain figure in nM.

Exercise: # IC50 lookup, item NCCOCCNC(=O)[C@@H]1CCNC(=O)/C=C/C(=O)N2CCC[C@](Cc3ccccc3)(C2)C(=O)N[C@@H](Cc2ccc(-c3ccc(CC(=O)O)cc3)cc2)C(=O)NCc2ccccc2CC(=O)N1
Solution: 230

Exercise: Try this molecule too: NCCOCCNC(=O)[C@@H]1CCNC(=O)/C=C/C(=O)N2CCC[C@](Cc3ccccc3)(C2)C(=O)N[C@@H](Cc2ccc(-c3ccc(C#CC(=O)O)cc3)cc2)C(=O)NCc2ccccc2CC(=O)N1
Solution: 11

Exercise: Try this molecule too: NCCCc1ccc(-c2ccc(C[C@@H]3NC(=O)[C@]4(Cc5ccccc5)CCCN(C4)C(=O)/C=C/C(=O)NCC[C@@H](C(=O)NCCOCCN)NC(=O)Cc4ccccc4CNC3=O)cc2)cc1
Solution: 3000

Exercise: Try this molecule too: NCCOCCNC(=O)[C@@H]1CCNC(=O)/C=C/C(=O)N2CCC[C@](Cc3ccccc3)(C2)C(=O)N[C@@H](Cc2ccc(-c3ccccc3)cc2)C(=O)NCc2ccccc2CC(=O)N1
Solution: 160

Exercise: Try this molecule too: NCCOCCNC(=O)[C@@H]1CCNC(=O)/C=C/C(=O)N2CCC[C@](Cc3ccccc3)(C2)C(=O)N[C@@H](Cc2ccc(C(=O)c3ccccc3)cc2)C(=O)NCc2ccccc2CC(=O)N1
Solution: 30

Numbers sourced from paper PMC9596378.
